Target: GSNOR (Homo sapiens (Human), UniProt P11766)
Sequence (P11766 whole entry): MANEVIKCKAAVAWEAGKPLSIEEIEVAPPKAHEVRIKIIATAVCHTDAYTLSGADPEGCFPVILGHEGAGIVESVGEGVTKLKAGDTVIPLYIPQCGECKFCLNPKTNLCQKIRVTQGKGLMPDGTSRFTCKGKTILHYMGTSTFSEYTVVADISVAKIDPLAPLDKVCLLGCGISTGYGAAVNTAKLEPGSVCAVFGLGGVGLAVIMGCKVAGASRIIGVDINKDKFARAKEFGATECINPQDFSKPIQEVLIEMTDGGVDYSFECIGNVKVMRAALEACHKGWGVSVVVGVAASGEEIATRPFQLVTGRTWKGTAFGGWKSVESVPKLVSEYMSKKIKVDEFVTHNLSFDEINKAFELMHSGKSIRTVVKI
Test: GSNOR assay (inhibition of GSNOR activity in vitro, change in 340 nm absorbance with GSNO/NADH)
Details: IC50, upper bound (about <)
# reported IC50; entries follow

Observe how each entry below is paired with its result.
Lab book: IC50 of CN(C)CCOc1cc(C2NC(=O)NC(c3ccccc3)=C2c2ccccc2)cc([N+](=O)[O-])c1O (stereo not drawn) [Example 170] noted as < 1000 nM

Lab book: IC50 of COc1cc(C2NC(=O)NC(c3ccccc3)=C2c2ccccc2)cc(O)c1C(=O)O (stereo not drawn) [Example 165] noted as < 100 nM

Lab book: IC50 of CCOc1cc(C2NC(=O)NC(c3ccco3)=C2c2ccccc2)cc([N+](=O)[O-])c1O (stereo not drawn) [Example 111] noted as < 100 nM

New cases:
Lab book: IC50 of CCOc1cc(C2NC(=O)NC(c3ccc(NC(=O)OC)cc3)=C2c2ccccc2)cc([N+](=O)[O-])c1O (stereo not drawn) [Example 83] noted as < 100 nM

Lab book: IC50 of CCOc1cc(C2NC(=O)NC(c3ccc(C#N)cc3)=C2c2ccccc2)cc([N+](=O)[O-])c1O (stereo not drawn) [Example 63] noted as < 100 nM

Lab book: IC50 of CCOc1cc(C2NC(=O)NC(C3CCCCC3)=C2c2ccsc2)cc([N+](=O)[O-])c1O (stereo not drawn) [Example 174] noted as < 100 nM

Lab book: IC50 of CCOc1cc(C2NC(=O)NC(c3ccccc3)=C2c2cccc(OC)c2)cc([N+](=O)[O-])c1O (stereo not drawn) [Example 23] noted as < 100 nM

Lab book: IC50 of CCOc1cc(C2NC(=O)NC(c3cccc4ccccc34)=C2c2ccccc2)cc([N+](=O)[O-])c1O (stereo not drawn) [Example 81] noted as < 100 nM

Lab book: IC50 of CCOc1cc(C2NC(=O)NC(c3ccccc3)=C2c2ccccc2F)cc([N+](=O)[O-])c1O (stereo not drawn) [Example 13] noted as < 100 nM

Lab book: IC50 of CCOc1cc(C2NC(=O)NC(c3ccccc3)=C2c2ccccc2C)cc([N+](=O)[O-])c1O (stereo not drawn) [Example 26] noted as < 1000 nM

Lab book: IC50 of COc1cc(C2NC(=O)NC(c3ccccc3)=C2c2ccccc2)cc([N+](=O)[O-])c1O (stereo not drawn) [Example 9] noted as < 100 nM

Lab book: IC50 of CCOc1cc(C2NC(=O)NC(c3ccncc3)=C2c2ccccc2)cc([N+](=O)[O-])c1O (stereo not drawn) [Example 71] noted as < 100 nM

Lab book: IC50 of CCOc1cc(C2NC(=O)NC(c3ccc(NC(C)=O)cc3)=C2c2ccccc2)cc([N+](=O)[O-])c1O (stereo not drawn) [Example 73] noted as < 100 nM

Lab book: IC50 of CCOc1cc([C@@H]2NC(=O)NC(c3cnn(C)c3)=C2c2ccsc2)cc(C(=O)O)c1O [Example 146] noted as < 100 nM

Lab book: IC50 of CCOc1cc(C2NC(=O)NC(c3ccccc3)=C2c2ccccc2)cc(C#N)c1O (stereo not drawn) [Example 69] noted as < 1000 nM

Measured values drawn from patent US8741915B2 for this set.
